This collection of values is drawn from PubChem BioAssay (NCI).

- test_protocol: NCI Yeast Anticancer Drug Screen. Data for the rad50 strain (AID 155);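 also: 0% = growth of vehicle-only cultures of the same strain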
- conditions_used: S. cerevisiae rad50 strain growth inhibition; at 50.0 µM (retest, dose inferred, filed as 5.0); stronger effect = higher value
- Protocol: Growth inhibition of yeast strains with defined genetic alterations is measured as a screen for potential anti-cancer activity. Selected strains with alterations in DNA damage repair or cell cycle control were exposed to compounds and growth inhibition was measured relative to vehicle treated controls. The strain used in this assay is rad50
This is part of a sample that, as a whole, favours compounds with a hit. Of some 79,000 tested, about 15% had one in any assay.
Hi there, I'd appreciate the recorded growth inhibition for every entry that follows.
Please give a number only; it is taken to be in %.

growth inhibition for `COc1ccc(/C=C2/C(=O)ON=C2C)cc1OC` is 35

growth inhibition for CC(NC(=O)OCc1ccccc1)C(=O)NNc1ccccc1Cl (stereo unspecified) is 96

growth inhibition for `c1ccc(CN2CCC3(CC2)SSC2(CCN(Cc4ccccc4)CC2)SS3)cc1` is 34

growth inhibition for `O=C(Nc1ccc(C2=NCCN2)cc1)c1ccc(C(=O)Nc2ccc(C3=NCCN3)cc2)c(Cl)c1` is 97

growth inhibition for `CCC[C@H]1[C@H](CCC)[C@@]2(OC(=O)C3=C2CCC=C3)[C@]12OC(=O)C1=C2CCC=C1` is 98

growth inhibition for `CC(CO)(CO)Cc1ccccc1` is -6

growth inhibition for `CCCCCCCCCCCC[n+]1ccc(C#N)cc1` is 81

growth inhibition for `O=C1c2ccccc2C(=O)c2c1ccc(O)c2O` is 96

growth inhibition for `COC(=O)C(=C(c1ccccc1)c1ccccc1)c1ccccc1` is -1

growth inhibition for COc1ccc(C2SC(N)=Nc3c2c(C)nn3C(=O)c2ccccc2O)cc1OC (stereo unspecified) is 74

growth inhibition for `O=NNc1ccc2cc3ccc(NN=O)cc3nc2c1` is 25
